Assay: Single-stage extraction: partitioning of dicofol technical between n-heptane and 90% aqueous methanol
Format: physicochemical
Settings: dicofol technical spiked with 1.80 Wt % p,p'-DDD and separately p,p'-DDT; 50g of 33% solution in 90% aqueous methanol; 40g n-heptane; 23°C
Experimental: A 50g sample of the desired dicofol solution was taken in a stoppered 100 ml graduated cylinder. […] They were then shaken well for two minutes. The samples were placed in an ice-water bath for 30 minutes. After the cooling period all samples were again shaken for 2 minutes. […] The samples were then removed from the bath and volumes recorded (Table I - Columns 2 and 3). […] The separated layers were concentrated under vacuum (70°C, 1 mm Hg), weighed (columns 6 and 7) and analyzed (Table II). […]
experimental.readout: Selectivity (Sel.)
Form rule: numeric answer, no unit written next to it.

Challenge: Endpoint output: Selectivity (Sel.) of Clc1ccc(C(c2ccc(Cl)cc2)C(Cl)(Cl)Cl)cc1 . Value?
Response given: 6.0

Challenge: Endpoint output: Selectivity (Sel.) of Clc1ccc(C(c2ccc(Cl)cc2)C(Cl)Cl)cc1 . Value?
Response given: 2.2

Challenge: Endpoint output: Selectivity (Sel.) of ClC(Cl)=C(c1ccc(Cl)cc1)c1ccccc1Cl . Value?
Response given: 6.8

Challenge: Endpoint output: Selectivity (Sel.) of Clc1ccc(C(Cl)(c2ccc(Cl)cc2)C(Cl)(Cl)Cl)cc1 . Value?
Response given: 10.8

* * *

Experiment: Single-stage extraction: partitioning of dicofol technical between n-heptane and 90% aqueous methanol
Assay type: physicochemical
Settings: dicofol technical spiked with 0.72 Wt % p,p'-DDD and separately p,p'-DDT; 50g of 33% solution in 90% aqueous methanol; 40g n-heptane; 23°C
Provide the reported Distribution coefficient (D.C.) of each item.

Challenge: Endpoint output: Distribution coefficient (D.C.) of Clc1ccc(C(Cl)(c2ccc(Cl)cc2)C(Cl)(Cl)Cl)cc1 . Value?
Response given: 3.8

Challenge: Endpoint output: Distribution coefficient (D.C.) of ClC(Cl)=C(c1ccc(Cl)cc1)c1ccccc1Cl . Value?
Response given: 2.4

Challenge: Endpoint output: Distribution coefficient (D.C.) of Clc1ccc(C(c2ccc(Cl)cc2)C(Cl)Cl)cc1 . Value?
Response given: 0.71

Challenge: Endpoint output: Distribution coefficient (D.C.) of Clc1ccc(C(c2ccc(Cl)cc2)C(Cl)(Cl)Cl)cc1 . Value?
Response given: 1.9

* * *

Provide the reported Selectivity (Sel.) of each item.
Test: Single-stage extraction: partitioning of dicofol technical between n-heptane and 90% aqueous methanol
Format: physicochemical
Details: dicofol technical spiked with 0.25 Wt % p,p'-DDD and separately p,p'-DDT; 50g of 33% solution in 90% aqueous methanol; 40g n-heptane; 23°C
Form rule: numeric answer, no unit written next to it.

Challenge: Endpoint output: Selectivity (Sel.) of Clc1ccc(C(c2ccc(Cl)cc2)C(Cl)(Cl)Cl)cc1 [p,p'-DDT] . Value?
Response given: 5.9

Challenge: Endpoint output: Selectivity (Sel.) of Clc1ccc(C(c2ccc(Cl)cc2)C(Cl)Cl)cc1 [p,p'-DDD] . Value?
Response given: 2.1

Challenge: Endpoint output: Selectivity (Sel.) of Clc1ccc(C(Cl)(c2ccc(Cl)cc2)C(Cl)(Cl)Cl)cc1 [p,p'-Cl-DDT] . Value?
Response given: 11.8

Challenge: Endpoint output: Selectivity (Sel.) of ClC(Cl)=C(c1ccc(Cl)cc1)c1ccccc1Cl [o,p'-DDE] . Value?
Response given: 7.6
